# Test system: MDA-MB-468 breast
# assay_method_text: NCI tumour cell line growth inhibition, 48 h; in the data active = GI50 below about 0.43 µM; inactive = the rest
Your reply should match one of these outcome classes. True = active, False = inactive

Exam item: Identify the outcome logged in this assay for the compound shown: CC1=NN(C(=O)c2nn(-c3ccc(Cl)cc3)cc2O)C(=O)C1
Marked response: False

Exam item: Identify the outcome logged in this assay for the compound shown: CCc1c2c(nc3ccc(OCc4ccc(B5OC(C)(C)C(C)(C)O5)cc4)cc13)-c1cc3c(c(=O)n1C2)COC(=O)[C@]3(O)CC
Marked response: True

Exam item: Identify the outcome logged in this assay for the compound shown: COc1ccc(C(=O)COc2ccc(NC(=O)Nc3ccc(Cl)c(C(F)(F)F)c3)cc2)cc1
Marked response: False

Exam item: Identify the outcome logged in this assay for the compound shown: O=C1NC(SCc2ccc(F)cc2)=N/C1=C/c1cccc(OCc2ccc(Cl)cc2)c1
Marked response: False

Exam item: Identify the outcome logged in this assay for the compound shown: Nc1ccc(-c2nnc(SCc3ccc(O)c4ncccc34)n2-c2ccccc2)cc1
Marked response: True

Exam item: Identify the outcome logged in this assay for the compound shown: COc1cc(NC(=O)c2cc(O)c(C/C=C(\C)CCC=C(C)C)c(O)c2)cc2c1O[C@]1(C)CC[C@@H](O)C(C)(C)[C@H]1C2
Marked response: False

Exam item: Identify the outcome logged in this assay for the compound shown: NCCSC(C[N+](=O)[O-])c1ccccc1Cl (stereo unspecified)
Marked response: False

Exam item: Identify the outcome logged in this assay for the compound shown: CC1(C)CC[C@]2(C(=O)Nc3ccccc3)CC[C@]3(C)C(=CC[C@@H]4[C@@]5(C)CC[C@H](N)C(C)(C)[C@@H]5CC[C@]43C)[C@H]2C1
Marked response: False

Exam item: Identify the outcome logged in this assay for the compound shown: COc1ccc2c(c1)C=C1CSCC3=Cc4cc(OC)ccc4OC13O2
Marked response: True

Exam item: Identify the outcome logged in this assay for the compound shown: c1ccc(/C(=N\Nc2ccc3ccccc3n2)c2ccccn2)cc1
Marked response: True

Exam item: Identify the outcome logged in this assay for the compound shown: CN(C)c1ncnc2c1ccn2C1OC(CO)C(O)C1O (stereo unspecified)
Marked response: True

###

Can you tell me TGI for the items I'm about to list?
# Test system: MDA-MB-468 breast
# assay_method_text: NCI tumour cell line growth inhibition, 48 h
Write it as a number; the unit µM goes unstated.

Summary for this compound, COc1ccc(C(=O)COc2ccc(NC(=O)Nc3ccc(Cl)c(C(F)(F)F)c3)cc2)cc1 : TGI is 8.67

Summary for this compound, Oc1ccc(O)c2c1C1(Cl)C(Cl)=C(Cl)C2(Cl)C1(Cl)Cl : TGI is 12.8

Summary for this compound, NS(=O)(=O)c1ccc(N2N=C(c3cccs3)CC2c2ccccc2O)cc1 (stereo not given) : TGI is 3.89

###

# Tested on: EKVX NSCLC
# assay_method_text: NCI tumour cell line growth inhibition, 48 h
measured_metric: GI50

Lab entry: EKVX NSCLC assay, compound COc1ccc(CN2[C@@H](C(=O)NCc3ccc(C(=O)NO)cc3)Cc3c([nH]c4ccccc34)[C@@H]2C)cc1 , GI50 = 2.24 µM

Lab entry: EKVX NSCLC assay, compound COc1ccc(C(=O)COc2ccc(NC(=O)Nc3ccc(Cl)c(C(F)(F)F)c3)cc2)cc1 , GI50 = 3.15 µM

Lab entry: EKVX NSCLC assay, compound CCCN(CCC)S(=O)(=O)c1ccc(C(=O)O)cc1.CCCN(CCC)S(=O)(=O)c1ccc(C(=O)O)cc1.[Cl][Pt+2][Cl].[NH2-].[NH2-] , GI50 = 8.4 µM

Lab entry: EKVX NSCLC assay, compound CC1(C)CC[C@]2(C(=O)Nc3ccccc3)CC[C@]3(C)C(=CC[C@@H]4[C@@]5(C)CC[C@H](N)C(C)(C)[C@@H]5CC[C@]43C)[C@H]2C1 , GI50 = 15.6 µM
